System: DNA
Experimental Details: Binding affinity to DNA (unknown origin) upto 25 uM incubated for 24 hrs in presence of ethidium bromide by […]
Type: nucleic-acid assay
Each entry below carries its recorded KSV.

CC12SC(c3ccccc3)=CC1=C1C(=C3C=C(c4ccccc4)SC32C)C(F)(F)C(F)(F)C1(F)F (stereo unspecified); 27 10^3/M
Cc1sc(-c2ccccc2)nc1C1=C(c2nc(-c3ccccc3)sc2C)C(F)(F)C(F)(F)C1(F)F; 1.6 10^3/M
Cc1sc(-c2ccccc2)cc1C1=C(c2nc(-c3ccccc3)sc2C)C(F)(F)C(F)(F)C1(F)F; 1.6 10^3/M

Record request: KSV value, item `Cc1sc(-c2ccccc2)cc1C1=C(c2cc(-c3ccccc3)sc2C)C(F)(F)C(F)(F)C1(F)F`
1.6 10^3/M

Suppose we examine the compound CC12SC(c3ccccc3)=NC1=C1C(=C3N=C(c4ccccc4)SC32C)C(F)(F)C(F)(F)C1(F)F (stereo unspecified) ; what KSV value has been reported?
27 10^3/M

Requested read-out: KSV. Entry: `C[C@]12SC(c3ccccc3)=CC1=C1C(=C3N=C(c4ccccc4)S[C@@]32C)C(F)(F)C(F)(F)C1(F)F`
27 10^3/M

----------
System: DNA
Experimental Details: Binding affinity to DNA (unknown origin) assessed as redshift in absorption maxima at 15 uM with […] blue light irradiation incubated for 24 hrs by fluorescence based assay
Type: nucleic-acid assay
The source made the active and inactive calls. No cut-off for these calls is given here.
Write down the outcome that applies. Available outcomes: active, inactive

Cc1sc(-c2ccccc2)cc1C1=C(c2nc(-c3ccccc3)sc2C)C(F)(F)C(F)(F)C1(F)F; active
CC12SC(c3ccccc3)=CC1=C1C(=C3C=C(c4ccccc4)SC32C)C(F)(F)C(F)(F)C1(F)F (stereo unspecified); inactive
C[C@]12SC(c3ccccc3)=CC1=C1C(=C3N=C(c4ccccc4)S[C@@]32C)C(F)(F)C(F)(F)C1(F)F; active

Call for entry `Cc1sc(-c2ccccc2)nc1C1=C(c2nc(-c3ccccc3)sc2C)C(F)(F)C(F)(F)C1(F)F` :
active

Please share the test call associated with `Cc1sc(-c2ccccc2)cc1C1=C(c2cc(-c3ccccc3)sc2C)C(F)(F)C(F)(F)C1(F)F` .
inactive

Hi, sorry to bother you, what did the test record for CC12SC(c3ccccc3)=NC1=C1C(=C3N=C(c4ccccc4)SC32C)C(F)(F)C(F)(F)C1(F)F (stereo unspecified) ?
active
